# systemUnderTest: natriuretic peptide receptor-B (NPR-B) on the cells of the cGMP stimulation assay of Example 2
# assayText: cell-based or functional assay
Bridge positions count the residues as written; N and C are the ends. Ends that are not written are not given here.
endpoint: EC50, T0 (cGMP stimulation assay) (nM)
Could you give me the number in nM? Just the number is fine.

Ac-PGQEHPQARRYRGAQRRGLSRGCFGLKLDRIGSMSGLGC-OH (disulfide 23-39 (inferred)) [CNP-8]: 0.2
Ac-PGQEHPNARRYRGANRRGLSRGCFGLKLDRIGSMSGLGC-OH (disulfide 23-39 (inferred)) [CNP-6]: 0.4
Ac-PGQEHPQARRYRGAQRRGLSRGCFGLKLDRIGSMSGLGC-NH2 (disulfide 23-39 (inferred)) [CNP-9]: 0.9

Entry under test: PGQEHPNARKYKGANKKGLSKGCFGLKLDRIGSMSGLGC (disulfide 23-39 (inferred)) [Pro-Gly CNP-37] . Its EC50, T0 (cGMP stimulation assay) was 1.7

EC50, T0 (cGMP stimulation assay) reported for this binder Ac-PGQEHPNARRYRGANRRGLSRGCFGLKLDRIGSMSGLGC-NH2 (disulfide 23-39 (inferred)) [CNP-7] : 2.1

The reported value for Ac-PGQEHPNARKYKGANKKGLSKGCFGLKLDRIGSMSGLGC-NH2 (disulfide 23-39 (inferred)) [CNP-5] in terms of EC50, T0 (cGMP stimulation assay) is 3
